Kindly supply the reported %Inh values for the records listed here.
system: GSK3A; conditions: concentration: 1 μM, replicates: in singlicate; n = 1;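 also: KINOMEscan kinase panel screen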
Numbers only, in %.

The following compounds have reported results that may help.
| Compound | Assay metric | Readout number |
| --- | --- | --- |
| Cc1ccc(O)cc1Nc1ccnc2ccc(C(C)(C)C)cc12 [GW856805] | %Inh | 0 |
| CC(=O)Nc1cn2nc(Oc3cccc(NC(=O)c4cccc(C(F)(F)F)c4)c3)ccc2n1 | %Inh | 20 |
| Cn1cc(-c2cnc(N)c3c(-c4ccc5c(c4)CCN5C(=O)Cc4ccccc4)csc23)cn1 [GSK2593074] | %Inh | 5 |
| Cl.N#CCc1ccc(Nc2nccc(Nc3ccc(Oc4ccccc4)cc3)n2)cc1 [GW639905] | %Inh | 0 |

Here are 6 compounds. What values of %Inh were reported for them?
1. CN(C)c1ncnc2nc[nH]c12 [SKF-31736]
2. Nc1ncc(-c2cn[nH]c2)c2scc(-c3ccc4c(c3)CCN4C(=O)Cc3ccccc3)c12 [GSK2593067]
3. Cc1ccc(Nc2ccnc(Nc3ccc(C)c(F)c3)n2)cc1O.Cl [GW582868]
4. CCn1cnc2c(NCc3ccccc3)ncnc21 [SKF-96418]
5. COc1cc(Nc2nccc(N3CCC(NC(=O)Nc4ccc5c(c4)OCO5)C3)n2)cc(OC)c1OC (stereo not drawn) [GSK1379766]
6. CCOc1nccc(-c2c(-c3ccc(F)cc3)ncn2C2CCNCC2)n1 [SB-249175]

[1, 2, 14, 0, 0, 0]

###

Field: %Inh. Provide a value for each of the compounds that follow.
tested on: PKMYT1; settings: concentration: 1 μM, replicates: in singlicate; n = 1
Numbers only, in %.

Quick request: %Inh for each listed item, please.
1. COc1cc(Nc2nccc(N3CCC(NS(=O)(=O)c4ccc(NC(C)=O)cc4)CC3)n2)cc(OC)c1OC
2. Cl.Cl.NCC(NC(=O)c1cc(-c2cccnc2)c(-c2ccnc3[nH]ccc23)s1)c1ccccc1 (stereo not drawn)

1: 40; 2: 10

###

system: WEE2; conditions: concentration: 1 μM, replicates: in singlicate; n = 1
So I've got a bunch of molecules here, and I need their %Inh values.
Dear colleague, please send the value followed by its unit.

| Molecule | Result |
| --- | --- |
| COc1cccc2c(-c3ccncc3)c(-c3ccc(F)cc3)nn12 [GW468513] | 0% |
| Cc1cc(-c2c(-c3ccc(F)cc3)ncn2CCCN2CCOCC2)nc(N)n1 [SB-222517] | 1% |
| CN1CCN(Cc2ccc(NC(=O)Nc3ccc(N(C)c4ccnc(Nc5ccc(CS(C)(=O)=O)cc5)n4)cc3)cc2)CC1.Cl [GW827654] | 27% |
| Cc1ccc(-c2ccc3occ(-c4ccc(S(C)=O)cc4)c3c2)nn1 (centres unmarked) | 0% |
| Cc1cccc(Nc2nc(N[C@H]3CCCC[C@H]3N)ncc2C(N)=O)c1.Cl [GSK986310] | 8% |

Could I get %Inh for every one of these entries?
1. Cc1ccc(O)cc1Nc1ccnc2ccc(C(C)(C)C)cc12 [GW856805]
2. Cc1ccc(NC(=O)c2ccc(Cl)c(Cl)c2)cc1-c1ccc(C(=O)Nc2ccncc2)cc1 [GSK1398460]

1. 18%
2. 6%

Return reported %Inh; argument: COc1cccc(CC(=O)N2CCc3cc(-c4cn(C)c5ncnc(N)c45)ccc32)c1 [GSK2608899]
0%

###

test system: CLK3; settings: concentration: 1 μM, replicates: in singlicate; n = 1
Assay metric: %Inh
Note: a bare number is incomplete; add the unit.

| Sample smiles | Result |
| --- | --- |
| COC(=O)Nc1nc2cc(Oc3ccc(NC(=O)Nc4cccc(SC)c4)cc3)ccc2[nH]1.Cl | 23% |
| O=C(Nc1n[nH]c2nc(-c3ccccc3O)ccc12)C1CC1 | 0% |
| Cc1ccccc1CC(=O)N1CCc2cc(-c3cn(C)c4ncnc(N)c34)ccc21 | 6% |

For CLK3, provide %Inh of Fc1cc(Cl)ccc1Nc1ccnc2cc(-c3ccc(CN4CCOCC4)o3)ccc12 please.
0%

###

tested on: RPS6KA4(Kin.Dom.1-N-terminal); settings: concentration: 1 μM, replicates: in singlicate; n = 1
Assignment: determine reported %Inh for the given compounds.
Give bare numbers, in %.

As a guide, the following entries are already answered.
| Compound | %Inh, % |
| --- | --- |
| CC(C)(C)c1ccc(C(=O)Nc2cn3cc(-n4ccnc4)ccc3n2)cc1 | 0 |
| c1ccc(Oc2ccc(Nc3ccnc4cc(-c5ccc(CN6CCCCC6)o5)ccc34)cc2)nc1 | 13 |
| Cc1ccc(NC(=O)c2cccc(N3CCCCC3)c2)cc1-c1ccc(C(=O)NCC2CC2)cc1 | 28 |

For every listed record, write down its %Inh.
1. Nc1ncc(-c2ccc3nccc(-c4ccncc4)c3c2)cc1S(=O)(=O)N1CCCCC1
2. COc1ccc(NC(=O)c2ccoc2)cc1-c1ccc(C(=O)NCC2CC2)cc1
3. CC(=O)Nc1cn2nc(Oc3cccc(NC(=O)c4cccc(C(F)(F)F)c4)c3)ccc2n1
4. COc1cccc(C2=C(Nc3cccc(O)c3)C(=O)NC2=O)c1
5. COc1ccc(C2=C(Nc3cccc(O)c3)C(=O)NC2=O)cc1
6. CN1CCN(Cc2ccc(NC(=O)Nc3ccc(N(C)c4ccnc(Nc5ccc(CS(C)(=O)=O)cc5)n4)cc3)cc2)CC1.Cl
7. O=C1NC(=O)C(c2ccccc2Cl)=C1Nc1cccc(Cl)c1
8. Cc1ccc(-c2ccc3occ(-c4ccc(S(C)=O)cc4)c3c2)nn1 (stereo not shown)

1: 0; 2: 18; 3: 47; 4: 21; 5: 0; 6: 39; 7: 16; 8: 1

Working through the 2 compounds below one at a time, give %Inh for each.
1. Cc1cccc(Nc2nc(NCCN)ncc2C(N)=O)c1
2. O=C(Nc1n[nH]c2nc(-c3ccccc3O)ccc12)C1CC1

[12, 0]

###

tested on: MRCKB; construct: gene CDC42BPB; conditions: concentration: 1 μM, replicates: in singlicate; n = 1
I'd be grateful if you could share measured %Inh for these entries.
Give bare numbers, in %.

Hi team, please reply with %Inh for each item in this list.
1. CN(C)c1ncnc2nc[nH]c12
2. Nc1ncc(-c2ccc3nccc(-c4ccncc4)c3c2)cc1S(=O)(=O)N1CCCCC1
3. O=C(O)C(F)(F)F.O=c1[nH]ccc2nc(N[C@@H]3CCNC3)nc(Nc3ccc4c(c3)S(=O)(=O)CC4)c12

[0, 0, 54]

Give one value of %Inh per listed molecule.
1. COc1ccc(NC(=O)c2ccoc2)cc1-c1ccc(C(=O)NCC2CC2)cc1
2. COC(=O)Nc1nc2ccc(Oc3ccc(NC(=O)Nc4cc(C(F)(F)F)ccc4F)cc3)cc2[nH]1.Cl
3. CN(c1ccc(NC(=O)Nc2cccc(Cl)c2)cc1)c1ccnc(N)n1.Cl
4. Cc1ccc(C)c(NC(=O)Nc2ccc(C)c(-c3ccc(C(=O)Nc4ccncc4)cc3)c2)c1

1. 19
2. 0
3. 17
4. 21

Hi there! I need %Inh for each item below, if you can.
1. COc1cc(Nc2ccnc3cc(-c4ccncc4)ccc23)cc(OC)c1OC.Cl
2. Cc1ccc(NC(=O)c2ccnc(N3CCCCC3)c2)cc1-c1ccc(C(=O)NCC2CC2)cc1
3. O=C(Nc1c(F)cccc1F)c1cc(C(=O)c2ccccc2F)c[nH]1
4. COc1cccc(CC(=O)N2CCc3cc(-c4cn(C)c5ncnc(N)c45)ccc32)c1
5. CC(C)NCC(Cc1ccccc1)NC(=O)c1cc(Br)c(-c2ccnc3[nH]ccc23)s1.Cl.Cl (stereo not drawn)
6. CCn1cnc2c(NCc3ccccc3)ncnc21

4
9
0
0
89
0

I need %Inh for every entry listed below, if you could help.
1. CC(C)(C)c1ccc(C(=O)Nc2cn3cc(-n4ccnc4)ccc3n2)cc1
2. Cl.Cl.NC(CNC(=O)c1cc(Br)c(-c2ccnc3[nH]ccc23)s1)c1ccccc1 (stereo not drawn)
3. Cc1ccc(NC(=O)c2cccc(N3CCCCC3)c2)cc1-c1ccc(C(=O)NCC2CC2)cc1
4. O=C(O)C(F)(F)F.O=c1[nH]ccc2nc(N[C@@H]3CCNC3)nc(Nc3cc(Cl)cc(Cl)c3)c12
5. Fc1cc(Cl)ccc1Nc1ccnc2cc(-c3ccc(CN4CCSCC4)o3)ccc12
6. Nc1ncnc2scc(-c3ccc(NC(=O)Cc4cc(F)ccc4F)cc3)c12.O=C(O)C(F)(F)F

1: 0; 2: 93.7; 3: 0; 4: 35; 5: 4; 6: 4

Hi there! I need %Inh for each item below, if you can.
1. CC(C)c1nc(-c2cccc(NS(=O)(=O)c3c(F)cccc3F)c2)c(-c2ccnc(Nc3ccc(N4CCOCC4)nc3)n2)s1.Cl
2. Cn1cc(-c2ccc3c(c2)CCN3C(=O)Cc2cc(F)cc(C(F)(F)F)c2)c2c(N)ncnc21
3. Fc1cc(Cl)ccc1Nc1ccnc2cc(-c3ccc(CN4CCOCC4)o3)ccc12

1: 0; 2: 0; 3: 0

Go through the list and state %Inh for each entry.
1. O=C(Nc1n[nH]c2cc(-c3cccs3)ccc12)C1CC1
2. Cl.N#CCc1ccc(Nc2nccc(Nc3ccc(Oc4ccccc4)cc3)n2)cc1
3. Cc1ccc(O)cc1Nc1ccnc2cc(-c3ccc(CN4CCCCC4)o3)ccc12
4. COc1ccc(C2=C(Nc3cccc(O)c3)C(=O)NC2=O)cc1
5. Cc1nn2c(=O)cc(N3CCO[C@H](C)C3)nc2n1Cc1cccc(Cl)c1Cl
6. N#CC1(c2cccc(C(=O)Nc3cccc(Oc4ccc5nc(NC(=O)C6CC6)sc5n4)c3)c2)CC1

[0, 0, 0, 2, 60, 0]

State the recorded %Inh for every item in the following list.
1. CCNc1nccc(-c2c(-c3ccc(F)cc3)ncn2C2CCN(C)CC2)n1
2. COC(=O)Nc1nc2ccc(Oc3ccc(CC(=O)Nc4cc(C(F)(F)F)ccc4F)cc3)cc2[nH]1

[0, 0]
